Source: PubChem BioAssay AID1918949

- Test system: K24384-001-R-PDC complex spheroid viability;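 also: spheroids exposed to agents for seven days before luminescence viability reading; 100% = DMSO vehicle control viability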
- ASSAY PROTOCOL: Anticancer human tumor K24384-001-R-PDC patient-derived pancreatic adenocarcinoma cell line growth inhibition
- ASSAY SETUP: second compound 0.1 µM; first compound 3 µM; hits give low values
Measured viability, T/C values are reported for all entries that follow.
ASSAY METRIC: viability, T/C (%)

[[record]]
molecule = "NS(=O)(=O)OCC1CC(n2ccc3c(NC4CCc5ccccc54)ncnc32)CC1O (stereo not given) + NC1CCC(NC2CC2c2ccccc2)CC1"
assay_metric = "viability, T/C"
readout_number = 26.1

[[record]]
molecule = "O=C(C=Cc1cccc(S(=O)(=O)Nc2ccccc2)c1)NO + NC1CC1c1ccc(-c2cccc(O)c2)cc1"
assay_metric = "viability, T/C"
readout_number = 2.49

[[record]]
molecule = "COc1cc(C2c3cc4c(cc3C(OC3OC5COC(C)OC5C(O)C3O)C3COC(=O)C23)OCO4)cc(OC)c1O (stereo not given) + NC1CC1c1ccc(-c2cccc(O)c2)cc1"
assay_metric = "viability, T/C"
readout_number = 38.2

[[record]]
molecule = "COc1cc(C2c3cc4c(cc3C(OC3OC5COC(C)OC5C(O)C3O)C3COC(=O)C23)OCO4)cc(OC)c1O (stereo not given) + NC1CCC(NC2CC2c2ccccc2)CC1"
assay_metric = "viability, T/C"
readout_number = 42.8

[[record]]
molecule = "Nc1ccccc1NC(=O)c1ccc(CNC(=O)OCc2cccnc2)cc1 + NC1CCC(NC2CC2c2ccccc2)CC1"
assay_metric = "viability, T/C"
readout_number = 0.14

[[record]]
molecule = "NS(=O)(=O)OCC1CC(n2ccc3c(NC4CCc5ccccc54)ncnc32)CC1O (stereo not given) + NC1CC1c1ccc(-c2cccc(O)c2)cc1"
assay_metric = "viability, T/C"
readout_number = 27

[[record]]
molecule = "CCN(c1cc(-c2ccc(CN3CCOCC3)cc2)cc(C(=O)NCc2c(C)cc(C)[nH]c2=O)c1C)C1CCOCC1 + NC1CCC(NC2CC2c2ccccc2)CC1"
assay_metric = "viability, T/C"
readout_number = 57.5

[[record]]
molecule = "O=C(C=Cc1cccc(S(=O)(=O)Nc2ccccc2)c1)NO + NC1CCC(NC2CC2c2ccccc2)CC1"
assay_metric = "viability, T/C"
readout_number = 0.14

[[record]]
molecule = "Nc1ccccc1NC(=O)c1ccc(CNC(=O)OCc2cccnc2)cc1 + NC1CC1c1ccc(-c2cccc(O)c2)cc1"
assay_metric = "viability, T/C"
readout_number = 0.15

[[record]]
molecule = "CCN(c1cc(-c2ccc(CN3CCOCC3)cc2)cc(C(=O)NCc2c(C)cc(C)[nH]c2=O)c1C)C1CCOCC1 + NC1CC1c1ccc(-c2cccc(O)c2)cc1"
assay_metric = "viability, T/C"
readout_number = 62.8

